System: HEK-293T
assay_notes: Multiplex assay against HEK293T
Assay type: toxicity, cell-based
experimental_parameters: human, 12 h, 1 µM, compound concentration 1 uM, replicate 2
recorded_metric: Population Fragmented Nuclei (%)

{"molecule": "Cl.Cl.Nc1ncnc2c1c(-c1cccc(OCc3ccccc3)c1)cn2[C@H]1C[C@@H](CN2CCC2)C1", "result": "5%"}
{"molecule": "Nc1ccc(C(=O)Nc2cccc(-c3nc(N4CCOCC4)c4oc5ncccc5c4n3)c2)cn1", "result": "8%"}
{"molecule": "COc1cc(N2CCC(N(C)C)CC2)ccc1Nc1ncc(Cl)c(Nc2ccccc2P(C)(C)=O)n1", "result": "8%"}
{"molecule": "COc1ccc(NS(=O)(=O)c2sc3ccc(Cl)cc3c2C)cc1N1CCNCC1.Cl", "result": "5%"}
{"molecule": "COc1cc2c(NC3CCN(C(C)C)CC3)nc(N3CCC(F)(F)CC3)nc2cc1OCCCN1CCCC1", "result": "8%"}
{"molecule": "Cc1cc2c(cc1N1C(=O)c3cccc4c(CCCO)ccc(c34)C1=O)n(C)c(=O)n2C", "result": "5%"}
{"molecule": "O=C(O)c1ccc2cc(-c3ccc(O)c(C45CC6CC(CC(C6)C4)C5)c3)ccc2c1", "result": "2%"}
{"molecule": "CC(=O)c1cc(-c2cc(C(=O)NC3CC3)ccc2C)c2ncccn12", "result": "1%"}
{"molecule": "CCCn1c(=O)c2[nH]c(C34CC5CC(CC3C5)C4)nc2n(CCC)c1=O", "result": "6%"}
{"molecule": "CC(C)N1CCC(C)(C)c2cc(C#Cc3ccc(C(=O)O)cc3)ccc21", "result": "4%"}
{"molecule": "CNC(=O)c1cc(Oc2ccc(NC(=O)Nc3cc(C(C)(C)C)nn3-c3ccc4ncccc4c3)c(F)c2)ccn1", "result": "11%"}
{"molecule": "CCn1c(-c2nonc2N)nc2cnc(Oc3cccc(NC(=O)c4ccc(OCCN5CCOCC5)cc4)c3)cc21 [GSK-269962A]", "result": "8%"}
{"molecule": "Cl.Cl.NC1(c2ccc(-c3nc4ccn5c(=O)[nH]nc5c4cc3-c3ccccc3)cc2)CCC1", "result": "8%"}
{"molecule": "N#Cc1cnc(Nc2cc(NC[C@H]3CNCCO3)c(C(F)(F)F)cn2)cn1", "result": "11%"}
{"molecule": "CC(C)Oc1ccc(C(=O)N[C@H](CNC(=O)CN(C)C)Cc2ccc(-c3cn4cccc([C@H](C)O)c4n3)cc2)cc1Cl [GSK-923295A]", "result": "6%"}
{"molecule": "CC(C)(C)c1cnc(CSc2cnc(NC(=O)C3CCNCC3)s2)o1", "result": "4%"}
{"molecule": "Cc1nc(Cc2cccc(C(F)(F)F)c2)sc1-c1ccc(C(N)=O)nc1 [TP-024n]", "result": "2%"}
{"molecule": "CCOc1cc(N2CCC(O)CC2)ccc1Nc1ncc2c(n1)N(C1CCCC1)CCC(=O)N2C", "result": "6%"}
{"molecule": "CCOc1cc2ncc(C#N)c(Nc3ccc(OCc4cccc(F)c4)c(Cl)c3)c2cc1NC(=O)/C=C/CN(C)C", "result": "7%"}
{"molecule": "CNC(=O)c1nn(C)c2c1C(C)(C)Cc1cnc(Nc3ccc(N4CCN(C)CC4)cc3)nc1-2", "result": "2%"}
{"molecule": "CN(C)CCOc1ccc(-c2nc(-c3ccncc3)c(-c3ccc4c(c3)CC/C4=N\\O)[nH]2)cc1", "result": "2%"}
{"molecule": "Nc1nc2c(c(N3CCNCC3)n1)CCC1=C2[C@@H]2CCCC[C@@H]2O1", "result": "4%"}
{"molecule": "CCC(=O)O[C@]1(C(=O)SCF)[C@H](C)C[C@H]2[C@@H]3C[C@H](F)C4=CC(=O)C=C[C@]4(C)[C@@]3(F)[C@@H](O)C[C@@]21C [FLUTICASONE PROPIONATE]", "result": "4%"}
